tested on: ATP; assay: switch fluorescence ratio, 500 uM ATP over buffer (Cy3 cluster intensity, sum of 5 cycles each) (fold (ratio)); higher = stronger signal-on switching upon ATP binding; sequences stand for … in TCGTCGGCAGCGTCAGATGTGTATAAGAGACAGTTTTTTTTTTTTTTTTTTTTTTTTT…TC; conditions: aptamer strand: ATP DNA aptamer (quencher-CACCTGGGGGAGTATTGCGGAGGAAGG + anchor), 100 nM annealed; ATP concentration: 500 uM;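 also: ATP exposure 15 min at 22 °C before imaging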
Entries and their measured switch fluorescence ratio follow.
Answer with a bare number; do not write a unit.

switch fluorescence ratio reported for this sequence TAGCTCGGGG : 1.03

For reference, reported switch fluorescence ratio for TGGAATTGGT stands at 1.02

GET /value?item= TGAGATAAAG &field=switch fluorescence ratio returns 0.967

GET /value?item= TCTAGACTCA &field=switch fluorescence ratio returns 1.18

----------
tested on: ATP; test: switch fluorescence ratio, 500 uM ATP over buffer (Cy3 cluster intensity, sum of 5 cycles each) (fold (ratio)); higher = stronger signal-on switching upon ATP binding; sequences stand for … in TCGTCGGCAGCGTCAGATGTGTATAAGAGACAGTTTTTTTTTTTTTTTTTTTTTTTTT…TC; conditions: aptamer strand: ATP DNA aptamer (quencher-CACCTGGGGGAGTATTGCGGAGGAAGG + anchor), 100 nM annealed; ATP concentration: 500 uM;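 also: ATP exposure 15 min at 22 °C before imaging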
EXPERIMENTAL_ENDPOINT: switch fluorescence ratio
API doc: respond with a numeric literal and nothing else, no unit.

| INPUT_SEQUENCE | switch fluorescence ratio |
| --- | --- |
| GGACACATGC | 1.1 |
| TAAAGTGTTG | 1.02 |
| GTGGGGCGCA | 1.01 |

For CTTTTTTATT the sequence record lists switch fluorescence ratio as 1.01

Please fill in: switch fluorescence ratio reported for CGGTACTTGG = 0.967

Record summary for CAGTGATAAA : reported switch fluorescence ratio = 1.01

----------
system: ATP; assay: switch fluorescence ratio, 500 uM ATP over buffer (Cy3 cluster intensity, sum of 5 cycles each) (fold (ratio)); higher = stronger signal-on switching upon ATP binding; sequences stand for … in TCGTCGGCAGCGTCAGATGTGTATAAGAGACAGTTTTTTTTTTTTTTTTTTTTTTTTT…TC; details: aptamer strand: ATP DNA aptamer (quencher-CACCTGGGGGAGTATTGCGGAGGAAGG + anchor), 100 nM annealed; ATP concentration: 500 uM;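 also: ATP exposure 15 min at 22 °C before imaging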
Catalogue of switch fluorescence ratio values
The answer should be a number; do not append a unit.

Sample answers from the record:
| INPUT_SEQUENCE | MEASURED_NUMBER |
| --- | --- |
| AGCTTTCCTA | 0.996 |
| TTCTGATCAG | 1.01 |
| TTGTGGGAGG | 0.997 |

I looked up TGGGATCAGT and its switch fluorescence ratio for ATP was 0.99

The measured switch fluorescence ratio that ATGTATTCTT showed for ATP is 0.987

Record CGTATACTGA has ATP switch fluorescence ratio equal to 1.01

Form field switch fluorescence ratio for item TTTTTTGTCT on ATP: 0.993

Form field, switch fluorescence ratio with ATP, item GTTGGAGCCT : 0.995

The observed switch fluorescence ratio for CGGCACGTGG when tested with ATP stands at 0.998

Known value: ATP switch fluorescence ratio of the sequence GCTGGGAATG equals 0.98

Param item: TCGTTGCAGT ; param system: ATP; output switch fluorescence ratio: 1.02

ATP switch fluorescence ratio of GCCTGAAAGG is 0.993
